meta.source: patent US10294202B2

The molecules listed here are annotated with their Crabgrass, Large plant response rating.
# Tested on: crabgrass, large
# experiment: Test C pre-/postemergence herbicide test
# Format: in vivo, Digitaria sanguinalis
# studyConditions: Preemergence, 62 g ai/ha; scale 0 to 100 (0 no effect, 100 complete control)
recordedMetric: Crabgrass, Large plant response rating

[[record]]
molecule = "O=C1NCC(c2cc(F)cc(F)c2)C1C(=O)Nc1cccc(F)c1F (racemic) [Compound 279]"
datavalue = 95

[[record]]
molecule = "O=C1NCC(c2cccc(Cl)c2)C1C(=O)Nc1cccc(F)c1F (racemic) [Compound 275]"
datavalue = 95

[[record]]
molecule = "O=C1NCC(c2cccc(Br)c2)C1C(=O)Nc1ccccc1F (stereo not shown) [Compound 307]"
datavalue = 95

[[record]]
molecule = "O=C1NCC(c2cccc(C(F)F)c2)C1C(=O)Nc1cccc(F)c1F (racemic) [Compound 211]"
datavalue = 95

[[record]]
molecule = "Cc1cccc(NC(=O)C2C(=O)NCC2c2cccc(C(F)(F)F)c2)c1 (stereo not shown) [Compound 317]"
datavalue = 95

[[record]]
molecule = "O=C1NCC(c2ccc(C(F)(F)F)nc2)C1C(=O)Nc1ccccc1F (racemic) [Compound 262]"
datavalue = 98

[[record]]
molecule = "O=C1NCC(c2cccc(C(F)(F)F)c2)C1C(=O)Nc1ccc(F)cc1F (racemic) [Compound 207]"
datavalue = 90

[[record]]
molecule = "O=C1NCC(c2ccc(C(F)(F)F)nc2)C1C(=O)Nc1cccc(F)c1F (racemic) [Compound 263]"
datavalue = 100

[[record]]
molecule = "CN1CC(c2ccc(F)c(F)c2)C(C(=O)Nc2ccccc2F)C1=O (stereo not shown) [Compound 302]"
datavalue = 98

[[record]]
molecule = "O=C1NCC(c2cccc(C(F)(F)F)c2)C1C(=O)Nc1cccc(Cl)c1F (stereo not shown) [Compound 316]"
datavalue = 95


====

The compounds listed here are annotated with their Plant response rating, Foxtail, Giant.
# System: giant foxtail
# experiment: Test A pre-/postemergence herbicide test
# Assay type: in vivo, Setaria faberii
# studyConditions: 125 g ai/ha; visual rating, 0 to 100 scale, 0 no effect, 100 complete control; approximately 10 days; preemergence
recordedMetric: Plant response rating, Foxtail, Giant

[[record]]
compound = "Cc1ccc(F)c(NC(=O)C2C(=O)NCC2c2cccc(C(F)(F)F)c2)c1 (racemic)"
recordedmetric = "Plant response rating, Foxtail, Giant"
datavalue = 0

[[record]]
compound = "Cc1ccccc1NC(=O)C1C(=O)NCC1c1cccc(OC(F)F)c1 (stereo not drawn)"
recordedmetric = "Plant response rating, Foxtail, Giant"
datavalue = 90

[[record]]
compound = "O=C1NCC(c2ccc(Cl)cc2)C1C(=O)Nc1cccc(Cl)c1Cl (stereo not drawn)"
recordedmetric = "Plant response rating, Foxtail, Giant"
datavalue = 60

[[record]]
compound = "O=C1NCC(c2ccc(C(F)(F)F)cc2)C1C(=O)Nc1ccc(F)c(F)c1F (stereo not drawn)"
recordedmetric = "Plant response rating, Foxtail, Giant"
datavalue = 90

[[record]]
compound = "Cc1ccc(C2CNC(=O)C2C(=O)Nc2ccccc2F)cc1F (racemic)"
recordedmetric = "Plant response rating, Foxtail, Giant"
datavalue = 60

[[record]]
compound = "O=C1NCC(c2ccc(OC(F)(F)C(F)F)cc2)C1C(=O)Nc1ccc(F)c(F)c1F (racemic)"
recordedmetric = "Plant response rating, Foxtail, Giant"
datavalue = 30


====

# Test system: ryegrass, Italian
# experiment: Test C pre-/postemergence herbicide test
# Assay type: in vivo, Lolium multiflorum
# studyConditions: Preemergence, 31 g ai/ha; scale 0 to 100, 0 is no effect and 100 is complete control
The molecules listed here are annotated with their Ryegrass, Italian plant response rating.
recordedMetric: Ryegrass, Italian plant response rating

[[record]]
molecule = "O=C1NCC(c2cccc(Cl)c2)C1C(=O)Nc1cccc(F)c1F (racemic)"
datavalue = 15

[[record]]
molecule = "O=C1NCC(c2ccc(F)c(C(F)(F)F)c2)C1C(=O)Nc1ccccc1F (racemic)"
datavalue = 0

[[record]]
molecule = "O=C1NCC(c2cccc(OC(F)(F)F)c2)C1C(=O)Nc1cccc(F)c1F (stereo not shown)"
datavalue = 0

[[record]]
molecule = "O=C1NCC(c2cccc(C(F)(F)F)c2)C1C(=O)Nc1ccccc1Cl (racemic)"
datavalue = 0


====

# Test system: pigweed
# experiment: Test C pre-/postemergence herbicide test
# Type: in vivo, Amaranthus retroflexus
# studyConditions: Preemergence, 31 g ai/ha; scale 0 to 100, 0 is no effect and 100 is complete control
The compounds listed here are annotated with their Pigweed plant response rating.
recordedMetric: Pigweed plant response rating

[[record]]
compound = "O=C1NCC(c2ccccc2)C1C(=O)Nc1ccccc1F (racemic)"
datavalue = 0

[[record]]
compound = "O=C(Nc1ccccc1F)C1C(=S)NCC1c1cccc(C(F)(F)F)c1 (stereo not shown)"
datavalue = 0

[[record]]
compound = "CN1CC(c2ccc(F)c(F)c2)C(C(=O)Nc2ccccc2F)C1=O (stereo not shown)"
datavalue = 0

[[record]]
compound = "O=C1NCC(c2cccc(OC(F)F)c2)C1C(=O)Nc1ccc(F)c(F)c1F (stereo not shown)"
datavalue = 65

[[record]]
compound = "O=C1NCC(c2ccc(C(F)(F)F)cc2)C1C(=O)Nc1ccccc1Cl (stereo not shown)"
datavalue = 50

[[record]]
compound = "O=C1NCC(c2cccc(Br)c2)C1C(=O)Nc1ccccc1F (stereo not shown)"
datavalue = 0

[[record]]
compound = "O=C1NCC(c2cccc(C(F)(F)F)c2)C1C(=O)Nc1ccccc1Cl (stereo not shown)"
datavalue = 25


====

# Test system: velvetleaf
# experiment: Test C pre-/postemergence herbicide test
# Type: in vivo, Abutilon theophrasti
# studyConditions: Preemergence, 125 g ai/ha; scale 0 to 100 (0 no effect, 100 complete control)
recordedMetric: Plant response rating, Velvetleaf

[[record]]
compound = "O=C1NCC(c2ccc(C(F)(F)F)nc2)C1C(=O)Nc1cccc(F)c1F (racemic) [Compound 263]"
recordedmetric = "Plant response rating, Velvetleaf"
datavalue = 20

[[record]]
compound = "O=C1NCC(c2cccc(C(F)(F)F)c2)C1C(=O)Nc1ccc(F)cc1F (racemic) [Compound 207]"
recordedmetric = "Plant response rating, Velvetleaf"
datavalue = 0

[[record]]
compound = "O=C1NCC(c2cccc(Cl)c2)C1C(=O)Nc1cccc(F)c1F (racemic) [Compound 275]"
recordedmetric = "Plant response rating, Velvetleaf"
datavalue = 25

[[record]]
compound = "O=C1NCC(c2cccc(OC(F)(F)F)c2)C1C(=O)Nc1cccc(F)c1F (stereo not drawn) [Compound 68]"
recordedmetric = "Plant response rating, Velvetleaf"
datavalue = 10

[[record]]
compound = "O=C1NCC(c2cc(F)c(F)c(F)c2)C1C(=O)Nc1ccccc1F (racemic) [Compound 34]"
recordedmetric = "Plant response rating, Velvetleaf"
datavalue = 0

[[record]]
compound = "O=C1NCC(c2ccc(C(F)(F)F)cc2)C1C(=O)Nc1ccc(F)c(F)c1F (stereo not drawn) [Compound 232]"
recordedmetric = "Plant response rating, Velvetleaf"
datavalue = 65


====

# Tested on: nutsedge, yellow
# experiment: Test C pre-/postemergence herbicide test
# Format: in vivo, Cyperus esculentus
# studyConditions: Preemergence, 31 g ai/ha; scale 0 to 100, 0 is no effect and 100 is complete control
recordedMetric: Nutsedge, Yellow plant response rating

[[record]]
compound = "O=C1NCC(c2cc(F)cc(F)c2)C1C(=O)Nc1cccc(F)c1F (racemic)"
recordedmetric = "Nutsedge, Yellow plant response rating"
datavalue = 0

[[record]]
compound = "O=C1NCC(c2ccc(F)cc2)C1C(=O)Nc1cccc(F)c1F (racemic)"
recordedmetric = "Nutsedge, Yellow plant response rating"
datavalue = 0

[[record]]
compound = "O=C1NCC(c2cccc(C(F)(F)F)c2)C1C(=O)Nc1ccccc1Cl (racemic)"
recordedmetric = "Nutsedge, Yellow plant response rating"
datavalue = 0

[[record]]
compound = "O=C1NCC(c2cccc(OC(F)(F)F)c2)C1C(=O)Nc1cccc(F)c1F (centres unmarked)"
recordedmetric = "Nutsedge, Yellow plant response rating"
datavalue = 10

[[record]]
compound = "O=C1NCC(c2cccc(C(F)(F)F)c2)C1C(=O)Nc1cccc(F)c1F (centres unmarked)"
recordedmetric = "Nutsedge, Yellow plant response rating"
datavalue = 0

[[record]]
compound = "O=C1NCC(c2cccc(OC(F)F)c2)C1C(=O)Nc1ccc(F)c(F)c1F (centres unmarked)"
recordedmetric = "Nutsedge, Yellow plant response rating"
datavalue = 0

[[record]]
compound = "CN1CC(c2ccc(F)cc2)C(C(=O)Nc2cccc(F)c2F)C1=O (centres unmarked)"
recordedmetric = "Nutsedge, Yellow plant response rating"
datavalue = 0

[[record]]
compound = "O=C1NCC(c2cc(F)cc(F)c2)C1C(=O)Nc1ccc(F)cc1F (racemic)"
recordedmetric = "Nutsedge, Yellow plant response rating"
datavalue = 0

[[record]]
compound = "O=C1NCC(c2ccc(C(F)(F)F)cc2)C1C(=O)Nc1ccccc1Cl (centres unmarked)"
recordedmetric = "Nutsedge, Yellow plant response rating"
datavalue = 0

[[record]]
compound = "O=C1NCC(c2cccc(C(F)(F)F)c2)C1C(=O)Nc1ccc(F)cc1F (racemic)"
recordedmetric = "Nutsedge, Yellow plant response rating"
datavalue = 0

[[record]]
compound = "O=C1NCC(c2cccc(C(F)F)c2)C1C(=O)Nc1cccc(F)c1F (racemic)"
recordedmetric = "Nutsedge, Yellow plant response rating"
datavalue = 0

